- ASSAYED TARGET: photolabile unchained HLA-A*11:01 pMHC-I protein (Homo sapiens, UniProt P04439, A114D/D185E/E176A/F33Y/L180Q/S129P/T187R)
- PROTOCOL NOTES: ELISA with photolabile unchained pMHC-I protein and UV irradiation
- Format: binding
REPORTED METRIC: EASY_mean
// return just the number, without any unit appended

Sample FGSLLDYVREHK [CS1048] — what was its EASY_mean? 0.1889

// lookup EASY_mean for GSLLDYVR [CS1007] -0.02696

# query: EASY_mean of entry IMQLMPFGCLLD [TM1049] -0.01469

What value of EASY_mean has been recorded for this entry: GRAKLLGAEEKE [LR1049] -0.01715

# EASY_mean lookup, item ITQLMPFGS [CS1009] -0.02581

Look up EASY_mean for this sequence: QLMPFGSLLD [CS1021] 0.0006677

# get_value(readout='EASY_mean', item= ITQLMPFGSL [CS1019] ) -0.007918

What does the data say about its EASY_mean? Entry: KIPVAIKTSPKA [EX1023] -0.01234

Param item = ITDFGRAKLLG [LR1033] ; retrieve measured EASY_mean. -0.04357

Need EASY_mean, item SLLDYVREHKDN [CS1050] 0.2031

Which measured EASY_mean value corresponds to FGSLLDYVR [CS1015] ? -0.01602

Please give the measured EASY_mean for this sequence: FGSLLDYVRE [CS1025] 0.005114

So what's the measured EASY_mean for this one? MPLGSLLDYVR [CS1034] -0.006346

Please give the measured EASY_mean for this sequence: TQLMPFGSLLDY [CS1043] 0.01363

Which EASY_mean is reported for this sequence? TDFGRAKLLGA [LR1034] -0.04602

Reported EASY_mean, sequence LITQLMPFGS [CS1018] : ____ 0.007236

###

Exercise: for every item that follows, state its recorded ELISA450nm.
- ASSAYED TARGET: photolabile unchained HLA-A*11:01 pMHC-I protein (Homo sapiens, UniProt P04439, A114D/D185E/E176A/F33Y/L180Q/S129P/T187R)
- PROTOCOL NOTES: ELISA with photolabile unchained pMHC-I protein and UV irradiation
- Type: binding
- DETAILS: Table 2; 62.5 nM photolabile pMHC-I mixture, 5 μM peptide in PBS, UV 365 nm 2 × 5 min on ice, 2 h room temperature on anti-β2m plate; Abs450nm − Abs570nm; instability cutoff < 0.6

Look up ELISA450nm for this sequence: FIDSYICQV [reference compound] 0.3491

Looking for the measured ELISA450nm of TVVRRRCR [putative peptide, HBV, no IEDB entry] , can you help? 0.4625

What value of measured ELISA450nm is listed for SSCSSCPLSK [reference compound] ? 1.272

Reported ELISA450nm for STIPETTVVR [putative peptide, HBV, no IEDB entry] : what is it? 1.391

Please give the measured ELISA450nm for this sequence: STLPETTVIR [putative peptide, HBV, no IEDB entry] 1.302

# get_value(readout='ELISA450nm', item= TMVMELIRMIK [reference compound] ) 0.748

Bench note: what ELISA450nm did RSQSPRRR [putative peptide, HBV, no IEDB entry] show? 0.1859

Look up ELISA450nm: GLSPTVWLSA [reference compound] 0.2488

Returns the measured ELISA450nm for the input sequence. Input: FLLTKILTI [reference compound] 0.1791

Give the measured ELISA450nm of KFLPDLYDYK [reference compound] . 0.4809

Fill in the blank: the reported ELISA450nm of RTLSPRRR [putative peptide, Streptomyces sp, no IEDB entry] is ____. 0.1209

###

- Test system: HLA-A*11:01 single chain protein
- Format: biochemical, Human
- DETAILS: EASY MHC-I A*11:01, 2019-08-01; mean of the 2 replicates
REPORTED METRIC: EZ_mean
Write no unit; give the number alone.

Record lookup: for HLA-A*11:01 single chain protein, what EZ_mean belongs to IPVAIKTSPKAN [EX1024] ? -0.1301

Request body: readout EZ_mean, system HLA-A*11:01 single chain protein, query KTSPKANKEILD [EX1029] . Return the value. -0.1385

Lab note: need EZ_mean with HLA-A*11:01 single chain protein for entry TSPKANKEILDE [EX1030] , please look it up. -0.138

What EZ_mean appears in the records for this sequence with HLA-A*11:01 single chain protein? AIKTSPKANKEI [EX1027] -0.13

For the record VAIKTSPKANKE [EX1026] , what value of EZ_mean is listed for HLA-A*11:01 single chain protein? -0.1295

HLA-A*11:01 single chain protein / EZ_mean / IKTSPKANKEIL [EX1028] : value? -0.1371

Notebook entry, HLA-A*11:01 single chain protein assay: EZ_mean of SLLDYVREH [CS1017] = ? 0.7333

Enter reported EZ_mean observed with HLA-A*11:01 single chain protein for PVAIKTSPKANK [EX1025] -0.1057

Lookup: EZ_mean / HLA-A*11:01 single chain protein / KIPVAIKTSPKA [EX1023] -0.1135

###

- Test system: HLA-A*11:01 single chain protein
- Format: biochemical, Human
Kindly state EZ_mean for each of the entries shown.
Could you keep your reply to the number by itself?

Record request: EZ_mean value, item TDFGRAKLLG [LR1023] -0.0651

Any idea what EZ_mean was measured for TSTVQLIMQLM [TM1031] ? -0.09739

Recorded EZ_mean for GSLLDYVR [CS1007] , please? -0.06759

Form field: reported EZ_mean of IKTSPKAN [EX1002] -0.02894

Entry under review: ITDFGRAKLL [LR1022] . Reported EZ_mean? -0.0609

// EZ_mean lookup, key: LTSTVQLIMQLM [TM1041] -0.1142

Endpoint output: EZ_mean of GRAKLLGAE [LR1016] . Value? -0.03777

Item LMPFGSLLDY [CS1022] has what recorded EZ_mean? -0.05808

Fill in: EZ_mean of SLLDYVREHKD [CS1038] is ___ -0.03388

Record request: EZ_mean value, item KITDFGRA [LR1002] -0.03733

Sample SLLDYVRE [CS1008] — what was its EZ_mean? -0.06325

Given SLLDYVREHK [CS1027] , state its recorded EZ_mean. 0.9134

Reported EZ_mean, sequence STVQLIMQLMPF [TM1043] : ____ -0.1271

May I ask what EZ_mean has been recorded for LIMQLMPFGCL [TM1036] ? -0.1248

// query EZ_mean value for entry GSLLDYVREHK [CS1037] 0.3673

EZ_mean for DFGRAKLLG [LR1014] ? -0.05414

# input sequence: MPFGSLLD [CS1004] ; wanted: its EZ_mean -0.07336

###

- ASSAYED TARGET: photo-labile unchained HLA-A*11:01 MHC-I protein (Homo sapiens, UniProt P04439, A114D/D185E/E176A/F33Y/L180Q/S129P/T187R)
- Construct: made in house
- PROTOCOL NOTES: Photo-labile unchained MHC-I protein treated with UV, peptides and enterokinase (SDS-PAGE band volume)
- Type: biochemical
- DETAILS: mean of the 2 replicates of EZ50kD
Please provide measured Batch Mean for the entries that follow.
// return just the number, without any unit appended

Consider the sequence SLLDYVREH [CS1017] and give its measured Batch Mean. -0.3978

For the sequence shown here, MQLMPFGCLLDY [TM1050] , give the reported Batch Mean. -0.2574

What value of Batch Mean has been reported for the following sequence? QLMPFGSLLDY [CS1032] -0.05053

Sample SLLDYVREHKDN [CS1050] — what was its Batch Mean? -2.24

Fill blank: measured Batch Mean of the sequence FGSLLDYVREHK [CS1048] is ____. 0.7597

I'd like to know its Batch Mean. The sequence in question is SLLDYVREHK [CS1027] -1.466

Item under review: GSLLDYVREHK [CS1037] . Reported Batch Mean? -1.196

Quick check: Batch Mean of VAIKTSPKANK [EX1018, EGFR exon 19 deletion-derived peptide] ? 0.2261

###

- Test system: HLA-A*11:01 single chain protein
- Type: biochemical, Human
- DETAILS: EASY MHC-I A*11:01, gel 2019-07-17 lr1028-1036 5min; replicate 2 (lanes 15-28)
1 if Norm (50 kDa band adj. volume normalised: Undig_37C = 1, Dig_37C = 0) is below -0.03. 0 if not; exact matches included in 0.

Take the sequence KITDFGRAKLL [LR1032] and say whether its Norm (50 kDa band adj. volume normalised: Undig_37C = 1, Dig_37C = 0) is less than -0.03. 0

Given the entry TDFGRAKLLGA [LR1034] , would its reported Norm (50 kDa band adj. volume normalised: Undig_37C = 1, Dig_37C = 0) be below -0.03? 0

Determine if DFGRAKLLGAE [LR1035] shows Norm (50 kDa band adj. volume normalised: Undig_37C = 1, Dig_37C = 0) strictly lower than -0.03. 1
